Catalogue of activation readings, one per entry.
- assay.overview: Cholera quorum inducers, light production in absence of autoinducers, BH1578 strain, dry powder dose (AID 652239)
- test.conditions: V. cholerae BH1578 lux luminescence induction, 6 h; at 100 µM (top of the series)
Only the number, expressed in %, is required.

Worked cases, answers included:
INSERT INTO assay_data (molecule, reported_metric, readout_value) VALUES
  ('O=C(Nc1nnc(-c2ccccc2Cl)o1)C1CCCCC1', 'activation', 0.003),
  ('O=C(Nc1nnc(-c2ccc3c(c2)OCCO3)o1)C1CC1', 'activation', 0.001),
  ('Cc1ccc2cc3c(NC(=O)c4cc5ccccc5o4)nn(C)c3nc2c1', 'activation', 0.014),
  ('CN1CCC(C(=O)Nc2nnc(-c3ccc4c(c3)OCCO4)o2)CC1', 'activation', 0.02),
  ('C(=N\c1nnc(-c2ccc3c(c2)OCCO3)o1)/c1ccccc1', 'activation', 0.004),
  ('O=C(Nc1nnc(-c2ccc3c(c2)OCCO3)o1)C1CCC1', 'activation', 0.037);

(Q) Quick one: activation of O=C(Nc1nnc(C2CCCC2)o1)C1CCCCC1 ?
(A) -0.003

(Q) Quick one: activation of O=C(Cc1ccc(-c2ccccc2)cc1)NC1CNC1 ?
(A) 0.01
